details: in methanol, 323.15 K
readout_name: solubility (mole fraction)
Numbers only.

Request: Bench note: what solubility (mole fraction) did CCOC(=O)C1=C[C@]2(CC)CCCN3CCc4c(n1c1ccccc41)[C@@H]32 show?
Result: 0.00204

====

conditions: in n-butanol, 313.15 K
readout_name: solubility (mole fraction)

Request: Record request: solubility (mole fraction) value, item CCOC(=O)C1=C[C@]2(CC)CCCN3CCc4c(n1c1ccccc41)[C@@H]32
Result: 0.0048

====

settings: in n-butanol, 283.15 K
readout_name: solubility (mole fraction)

Request: Sample CCOC(=O)C1=C[C@]2(CC)CCCN3CCc4c(n1c1ccccc41)[C@@H]32 — what was its solubility (mole fraction)?
Result: 0.000936

====

settings: in cyclohexane, 303.15 K
readout_name: solubility (mole fraction)
Numbers only.

Request: # query: solubility (mole fraction) of entry CCOC(=O)C1=C[C@]2(CC)CCCN3CCc4c(n1c1ccccc41)[C@@H]32
Result: 0.00346

====

settings: in n-propanol, 303.15 K
readout_name: solubility (mole fraction)
One number for each entry.

Request: // query solubility (mole fraction) value for entry CCOC(=O)C1=C[C@]2(CC)CCCN3CCc4c(n1c1ccccc41)[C@@H]32
Result: 0.00208

====

details: in 2-butanone, 318.15 K
readout_name: solubility (mole fraction)
Give bare numbers.

Request: Report solubility (mole fraction) for CCOC(=O)C1=C[C@]2(CC)CCCN3CCc4c(n1c1ccccc41)[C@@H]32 please.
Result: 0.0203

====

conditions: in methanol, 298.15 K
readout_name: solubility (mole fraction)
Answers are plain numbers.

Request: What does the record list as solubility (mole fraction) for CCOC(=O)C1=C[C@]2(CC)CCCN3CCc4c(n1c1ccccc41)[C@@H]32 ?
Result: 0.000736

====

conditions: in ethanol, 303.15 K
readout_name: solubility (mole fraction)

Request: solubility (mole fraction) for CCOC(=O)C1=C[C@]2(CC)CCCN3CCc4c(n1c1ccccc41)[C@@H]32 ?
Result: 0.00126

====

conditions: in cyclohexane, 318.15 K
readout_name: solubility (mole fraction)
Numbers only.

Request: What solubility (mole fraction) value was documented for this compound, CCOC(=O)C1=C[C@]2(CC)CCCN3CCc4c(n1c1ccccc41)[C@@H]32 ?
Result: 0.00656

====

details: in cyclohexane, 298.15 K
readout_name: solubility (mole fraction)
One number for each entry.

Request: Reported solubility (mole fraction), compound CCOC(=O)C1=C[C@]2(CC)CCCN3CCc4c(n1c1ccccc41)[C@@H]32 : ____
Result: 0.00274

====

conditions: in cyclohexane, 313.15 K
readout_name: solubility (mole fraction)
Answers are plain numbers.

Request: What value of solubility (mole fraction) has been reported for the following compound? CCOC(=O)C1=C[C@]2(CC)CCCN3CCc4c(n1c1ccccc41)[C@@H]32
Result: 0.00537

====

details: in methyl acetate, 303.15 K
readout_name: solubility (mole fraction)
Give bare numbers.

Request: Could you share which solubility (mole fraction) value was measured for CCOC(=O)C1=C[C@]2(CC)CCCN3CCc4c(n1c1ccccc41)[C@@H]32 ?
Result: 0.00646

====

details: in methanol, 283.15 K
readout_name: solubility (mole fraction)
Numbers only.

Request: Could you tell me which solubility (mole fraction) is on file for CCOC(=O)C1=C[C@]2(CC)CCCN3CCc4c(n1c1ccccc41)[C@@H]32 ?
Result: 0.000378
